Reported values of pKa for individual entries
Experiment: physchem
Description: Dissociation constant, pKa of the compound
assay_metric: pKa

> print(dat)
                                   molecule  quantitative.result
1  CC(C)Cc1cc([N+](=O)[O-])c(O)c([N+](=O)[O-])c1                  4.3
2                        O=C(O)c1ccc(Br)cc1                 3.98
3  O=C(O)c1cc([N+](=O)[O-])cc([N+](=O)[O-])c1O                 1.55
4              O=C(O)c1cccc([N+](=O)[O-])c1                 3.47
5                        O=C(O)c1c(O)cccc1O                  2.7
6                     COc1ccc(O)c(C(=O)O)c1                 2.86
7  CC(C)CCc1cc([N+](=O)[O-])c(O)c([N+](=O)[O-])c1                  4.1
8                         O=C(O)c1ccc(I)cc1                 3.91

====

Test: physchem
Reported values of pKa for individual entries
assay_metric: pKa

> print(dat)
                                   molecule  assay.metric  quantitative.result
1  Cc1cc([N+](=O)[O-])c(O)c([N+](=O)[O-])c1C           pKa                  4.2
2  O=C(O)c1ccc(O)cc1O [2,4-DIHYDROXYBENZOIC ACID]           pKa                  4.7
3              O=C(O)c1ccc([N+](=O)[O-])cc1           pKa                 3.41
4  CC(C)CCCCCc1cc([N+](=O)[O-])c(O)c([N+](=O)[O-])c1           pKa                  4.1
5                        O=C(O)c1cc(I)ccc1O           pKa                 2.65
6                       O=C(O)c1cc(Br)ccc1O           pKa                 2.62

====

Assay: physchem
Conditions: octanol/aqueous phase
Description: Octanol-aqueous phase partition coefficient, log P of the compound
Reported values of logP for individual entries
assay_metric: logP

> print(dat)
                                   compound  assay.metric  quantitative.result
1    O=[N+]([O-])c1ccccc1O [NITROPHENOLATE]          logP                 1.79
2              Cn1c(=O)c2[nH]cnc2n(C)c1=O.O          logP                -0.78
3  CC(C)CCc1cc([N+](=O)[O-])c(O)c([N+](=O)[O-])c1          logP                 3.82
4  Cc1cc([N+](=O)[O-])c(O)c([N+](=O)[O-])c1C          logP                 2.54
5  CCCC(C)C1(CC)C(=O)NC(=S)NC1=O (stereo unspecified)          logP                  2.5
6                       c1ccc(CC2=NCCN2)cc1          logP                 2.65
